Assay: recombinant barcode read abundance after kanamycin selection (control-corrected) (log10(CPM+1)); higher = more efficient recombination; sequences stand for … in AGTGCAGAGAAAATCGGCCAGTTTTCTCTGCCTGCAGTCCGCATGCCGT…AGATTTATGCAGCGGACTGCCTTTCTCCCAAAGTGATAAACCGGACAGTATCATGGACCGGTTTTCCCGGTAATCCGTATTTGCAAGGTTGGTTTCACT; site = the 11-nt target
Threshold check on recombinant barcode read abundance (log10): at or above 0.2 gives T, strictly below gives F.

Q: Textbook exercise: given the entry CTCATTCCTTGGGTTCTAACCTGTTGCCT (site CTCATTCCTAC) , state whether its recombinant barcode read abundance (log10) is greater than or equal to 0.2.
A: T

Q: Textbook exercise: given the entry TTCGAAACTTGGGTTCTAACCTGTTGCGT (site TTCGAAACTAC) , state whether its recombinant barcode read abundance (log10) is greater than or equal to 0.2.
A: T

* * *

Test: recombinant UMI read abundance after kanamycin selection (control-corrected) (log10(CPM+1)); higher = more efficient recombination; extreme values may be limits of the assay; sequences stand for … in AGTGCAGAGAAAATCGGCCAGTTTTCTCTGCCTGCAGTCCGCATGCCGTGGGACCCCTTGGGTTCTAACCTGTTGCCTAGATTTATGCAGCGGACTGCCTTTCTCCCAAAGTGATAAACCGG…AGGTTGGTTTCACT; site = the 11-nt donor
MEASURED PROPERTY: recombinant UMI read abundance (log10)
Respond numerically, and do not add a unit to the figure.

Take a look at these entries with their results.
CTATTACCATGGACCGGTTTTCCCGGTAATCCGTATTTGAG (site CTATTACCTCT) = 0.00551
CGATCGACATGGACCGGTTTTCCCGGTAATCCGTATTTGTT (site CGATCGACTAA) = 0.6
CGTTTGACATGGACCGGTTTTCCCGGTAATCCGTATTTGAG (site CGTTCGACTCT) = 0
CTTCGCTCATGGACCGGTTTTCCCGGTAATCCGTATTTGTA (site CTTCTCTCTTA) = 0.00289

Next, consider the following sequence.
Form: sequence = CCCAAAGCATGGACCGGTTTTCCCGGTAATCCGTATTTGAT (site CCAAAAGCTAT) ; recombinant UMI read abundance (log10) = 0

* * *

Experiment: recombinant barcode read abundance after kanamycin selection (control-corrected) (log10(CPM+1)); higher = more efficient recombination; sequences stand for … in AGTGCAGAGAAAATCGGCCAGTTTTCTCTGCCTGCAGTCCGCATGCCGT…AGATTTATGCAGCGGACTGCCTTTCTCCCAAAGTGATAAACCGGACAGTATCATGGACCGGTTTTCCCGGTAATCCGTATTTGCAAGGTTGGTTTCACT; site = the 11-nt target
Classify as follows. Reported recombinant barcode read abundance (log10) greater than or equal to 0.3: 1 (yes). Reported recombinant barcode read abundance (log10) below: 0 (no).

Sample answers from the record:
TAGCATACTTGGGTTCTAACCTGTTGCCA (site TAGCATACTTG) = 1 (yes)
AGAACTCCTTGGGTTCTAACCTGTTGCGA (site AGAACTCCTTC) = 1 (yes)
CTAAGCTCTTGGGTTCTAACCTGTTGCCT (site CTAAGCTCTAG) = 1 (yes)

Q: I'd appreciate it if you could say whether GAGCGCTCTTGGGTTCTAACCTGTTGCCG (site GAGCGTTCTAG) has recombinant barcode read abundance (log10) at least equal to 0.3.
A: 0 (no)

Q: Could you please find out whether CCTGTAGCTTGGGTTCTAACCTGTTGCCT (site CCGGTAACTAG) has recombinant barcode read abundance (log10) that meets 0.3 or exceeds it?
A: 0 (no)

Q: Exam item: decide whether the reported recombinant barcode read abundance (log10) for AGGCGTCCTTGGGTTCTAACCTGTTGCCA (site AGGCGTCCTTG) is at least 0.3.
A: 1 (yes)

Q: Item TACGAATCTTGGGTTCTAACCTGTTGCCG (site TACGAATCTAG) with recombinant barcode read abundance (log10) of 0.3 or above?
A: 0 (no)
